Compiled IC50 measurements on IRAK1 (Homo sapiens) taken from the literature.
Sequence (P51617 whole entry): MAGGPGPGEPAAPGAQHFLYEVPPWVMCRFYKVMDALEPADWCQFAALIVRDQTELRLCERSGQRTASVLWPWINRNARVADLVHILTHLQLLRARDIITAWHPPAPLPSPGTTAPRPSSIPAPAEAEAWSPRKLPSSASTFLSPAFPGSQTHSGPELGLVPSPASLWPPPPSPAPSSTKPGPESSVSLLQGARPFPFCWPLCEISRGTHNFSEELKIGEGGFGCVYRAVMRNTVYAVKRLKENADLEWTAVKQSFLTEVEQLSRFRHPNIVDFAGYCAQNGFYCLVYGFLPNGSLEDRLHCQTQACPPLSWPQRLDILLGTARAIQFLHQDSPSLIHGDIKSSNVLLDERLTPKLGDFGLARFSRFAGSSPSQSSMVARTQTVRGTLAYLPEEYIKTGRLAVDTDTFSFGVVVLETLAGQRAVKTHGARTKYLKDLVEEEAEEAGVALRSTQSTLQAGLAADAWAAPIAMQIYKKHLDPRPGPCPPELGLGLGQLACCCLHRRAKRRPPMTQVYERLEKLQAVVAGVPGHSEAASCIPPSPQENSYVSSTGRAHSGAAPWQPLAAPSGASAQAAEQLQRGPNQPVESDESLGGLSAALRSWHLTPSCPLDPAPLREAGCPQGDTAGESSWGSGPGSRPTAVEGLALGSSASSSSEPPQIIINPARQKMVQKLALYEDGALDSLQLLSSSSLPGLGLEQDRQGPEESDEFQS
Quantity Name: IC50

Cn1cc(-c2cccc(-c3ncc(-c4cnn(C)c4)c(NC[C@H]4CC[C@@H](O)CC4)n3)c2)cn1; > 5000 nM
COc1cc2ncc(-c3cccc(N[C@@H]4CCNC4)n3)n2nc1C1CC1; 253 nM
Cn1cc(-c2cccc(-c3ncc(-c4ccn(C)n4)c(NC4CCOC4)n3)c2)cn1 (centres unmarked); 1000 to 5000 nM
Cn1cc(-c2cccc(-c3ncc(-c4ccn(C)n4)c(N[C@@H]4CC[C@H](N)C4)n3)c2)cn1 (racemic); 100 to 1000 nM
COc1cc2ncc(-c3cc(F)cc(N[C@@H]4CCCNC4)n3)n2nc1C1CC1; 1340 nM
Cn1cc(-c2cccc(-c3ncc(-c4ccn(C)n4)c(NC4CC(O)C4)n3)c2)cn1 (centres unmarked); 1000 to 5000 nM
Cn1cc(-c2cccc(-c3ncc(-c4cnn(C)c4)c(NCC4CC(O)C4)n3)c2)cn1 (centres unmarked); 100 to 1000 nM
C=CC(=O)N1CC2(CC(n3cc(-c4ccc(NC(=O)c5cccc(-c6cnoc6)n5)nc4)nn3)C2)C1; 612 nM
